These entries and their values trace back to patent US20110003865A1.

# TESTED ON: human Kv72+3 channels (Homo sapiens, UniProt O43525+O43526)
# Construct: expressed in transfected cells; host or cells: HEK293
# Sequence (O43526 whole entry): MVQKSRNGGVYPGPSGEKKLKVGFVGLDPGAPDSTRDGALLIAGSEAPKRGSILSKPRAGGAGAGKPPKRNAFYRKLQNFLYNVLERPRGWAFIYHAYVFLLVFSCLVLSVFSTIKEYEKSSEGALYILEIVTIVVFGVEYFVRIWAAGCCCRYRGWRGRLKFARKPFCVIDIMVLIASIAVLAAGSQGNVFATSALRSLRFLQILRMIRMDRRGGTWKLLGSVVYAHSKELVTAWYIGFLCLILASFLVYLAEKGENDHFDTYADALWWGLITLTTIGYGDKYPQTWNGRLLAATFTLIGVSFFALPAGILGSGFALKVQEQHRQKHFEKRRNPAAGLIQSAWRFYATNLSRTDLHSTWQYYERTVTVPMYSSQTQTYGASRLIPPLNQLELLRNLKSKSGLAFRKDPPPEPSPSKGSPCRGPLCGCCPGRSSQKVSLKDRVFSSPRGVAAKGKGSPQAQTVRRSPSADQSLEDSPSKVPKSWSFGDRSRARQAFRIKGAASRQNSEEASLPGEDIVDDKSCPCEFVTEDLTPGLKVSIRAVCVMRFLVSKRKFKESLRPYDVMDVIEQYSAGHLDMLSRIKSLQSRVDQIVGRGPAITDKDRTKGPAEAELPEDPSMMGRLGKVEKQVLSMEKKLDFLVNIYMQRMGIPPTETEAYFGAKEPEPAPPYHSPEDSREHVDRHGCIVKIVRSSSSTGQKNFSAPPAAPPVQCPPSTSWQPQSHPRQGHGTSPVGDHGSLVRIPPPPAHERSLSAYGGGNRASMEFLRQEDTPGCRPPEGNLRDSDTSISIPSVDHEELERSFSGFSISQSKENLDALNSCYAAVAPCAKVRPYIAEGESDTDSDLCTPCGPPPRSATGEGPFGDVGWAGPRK
# Sequence (O43525 whole entry): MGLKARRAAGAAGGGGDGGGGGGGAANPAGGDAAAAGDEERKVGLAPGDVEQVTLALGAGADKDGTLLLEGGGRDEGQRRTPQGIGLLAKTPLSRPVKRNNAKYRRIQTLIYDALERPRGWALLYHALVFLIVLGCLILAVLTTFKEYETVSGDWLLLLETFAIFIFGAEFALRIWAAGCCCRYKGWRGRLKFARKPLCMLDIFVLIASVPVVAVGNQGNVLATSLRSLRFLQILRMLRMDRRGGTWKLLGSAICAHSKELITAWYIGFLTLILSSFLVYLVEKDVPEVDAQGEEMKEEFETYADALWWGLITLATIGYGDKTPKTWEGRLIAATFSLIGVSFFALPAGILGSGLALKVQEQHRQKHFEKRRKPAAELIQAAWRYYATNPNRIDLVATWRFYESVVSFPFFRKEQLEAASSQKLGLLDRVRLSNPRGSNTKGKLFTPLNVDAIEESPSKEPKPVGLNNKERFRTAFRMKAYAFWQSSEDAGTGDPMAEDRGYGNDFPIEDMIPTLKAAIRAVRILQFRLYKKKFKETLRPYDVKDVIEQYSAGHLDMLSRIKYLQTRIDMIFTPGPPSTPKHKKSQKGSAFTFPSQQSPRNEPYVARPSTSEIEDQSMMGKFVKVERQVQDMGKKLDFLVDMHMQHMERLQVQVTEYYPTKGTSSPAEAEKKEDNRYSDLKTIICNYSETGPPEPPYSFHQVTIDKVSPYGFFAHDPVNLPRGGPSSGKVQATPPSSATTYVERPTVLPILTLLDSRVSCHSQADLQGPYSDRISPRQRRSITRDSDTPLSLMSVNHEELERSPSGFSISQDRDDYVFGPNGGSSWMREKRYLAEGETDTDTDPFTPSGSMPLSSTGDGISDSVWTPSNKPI
# TEST DETAILS: Patch-clamp, HEK293 cells stably expressing human Kv7.2+3 channels
# Assay type: cell-based
# ASSAY CONTEXT: conc. 0.03 μM, −30 mV, 20 ms; current relative to baseline current defined as 100%
PARAMETER: IK (%)
Enter your answer as a number in %; do not include the unit.

Example entries begin here.
[[record]]
compound = "CCN(CC)c1nc(NCc2ccc(F)cc2)ccc1NC(=O)[C@@H]1C[C@H]1c1ccccc1 (relative stereo)"
parameter = "IK (%)"
val = 520

[[record]]
compound = "CCN(CC)c1nc(NCc2ccc(F)cc2)ccc1NC(=O)[C@@H](C)c1ccccc1"
parameter = "IK (%)"
val = 334

[[record]]
compound = "CCN(CC)c1nc(NCc2ccc(F)cc2)ccc1NC(=O)Cc1ccc(C(F)(F)F)c(F)c1"
parameter = "IK (%)"
val = 282

[[record]]
compound = "CCN(CC)c1nc(NCc2ccc(F)cc2)ccc1NC(=O)CC(C)(C)C"
parameter = "IK (%)"
val = 550


Now turn to the next compound.
Dear colleague, I am looking for the recorded IK (%) of the following compound: `CCN(CC)c1nc(NCc2ccc(F)cc2)ccc1NC(=O)Cc1cc(F)cc(F)c1`
1247
